- System: GB4
- Method summary: qHTS profiling for inhibitors of Plasmodium falciparum proliferation (AID 504749); further: nearly all actives have a fitted effect of over 60% in size; further: potency means the concentration at half of the fitted maximal effect
- Assay context: P. falciparum in erythrocytes, SYBR Green DNA, 72 h; series mostly up to 28.7 µM
Inconclusive results are not listed. The source made the active and inactive calls. The call rests on the fitted dose curve; in most records, active means well fitted inhibition curve with a large enough effect; inconclusive means small, poorly fitted or top-dose-only effect; inactive means flat fitted curve, though single readings scatter.
Quantity kind: Potency

Solved entries (count: 4):
Compound	Potency
COC(=O)[C@@H]1CC2=CC(=O)CC[C@]2(C)[C@@]23O[C@@H]2C[C@@]2(C)[C@@H](CC[C@@]24CCC(=O)O4)[C@H]13	inactive
COc1ccc(CCN2CCC(Nc3nc4ccccc4n3Cc3ccc(F)cc3)CC2)cc1	1.9 µM (active)
CN1C(CCl)Nc2cc(Cl)c(S(N)(=O)=O)cc2S1(=O)=O (stereo not drawn)	inactive
CCCCOc1ccc(OCCCN2CCOCC2)cc1	inactive

Exam item: Supply reported Potency belonging to this compound: CC(C)COC(=O)OCN1C(=O)CN(CCN2CC(=O)N(COC(=O)OCC(C)C)C(=O)C2)CC1=O
Marked response: inactive

Exam item: Supply reported Potency belonging to this compound: CN(C)C(=S)SC(=S)N(C)C
Marked response: 13.5 µM (active)

Exam item: Supply reported Potency belonging to this compound: Nc1ccc(/C=C/c2ccc(N)cc2S(=O)(=O)O)c(S(=O)(=O)O)c1
Marked response: inactive

Exam item: Supply reported Potency belonging to this compound: Nc1cc(Cl)c(NC2=NCCN2)c(Cl)c1
Marked response: inactive

====

- System: CP201
- Method summary: qHTS profiling for inhibitors of Plasmodium falciparum proliferation (AID 504749); further: nearly all actives have a fitted effect of over 60% in size
- Assay context: P. falciparum in erythrocytes, SYBR Green DNA, 72 h; series mostly up to 28.7 µM
Records with an inconclusive call do not appear. Active and inactive are the calls of the source. Calls come from the whole dose curve; as a rule, active = well fitted inhibition curve with a large enough effect; inconclusive = small, poorly fitted or top-dose-only effect; inactive = flat fitted curve, though single readings scatter.
Give one outcome, nothing more. List: True = active, False = inactive

Exam item: Given CN(C(=O)CN(CCO)CC(=O)N(C)C(C)(C)Cc1ccccc1)C(C)(C)Cc1ccccc1 , state the outcome it received in this test.
Marked response: False

Exam item: Given COc1c2occc2c(OC)c2c(=O)cc(C)oc12 , state the outcome it received in this test.
Marked response: False

Exam item: Given CCCCOc1ccc(C(=O)CCN2CCCCC2)cc1 , state the outcome it received in this test.
Marked response: False

Exam item: Given COCc1c(C(C)C)nc(C(C)C)c(/C=C/[C@@H](O)C[C@@H](O)CC(=O)O)c1-c1ccc(F)cc1 , state the outcome it received in this test.
Marked response: False

Exam item: Given OCc1ccccc1O , state the outcome it received in this test.
Marked response: False

Exam item: Given CC(O)(P(=O)(O)O)P(=O)(O)O , state the outcome it received in this test.
Marked response: False

Exam item: Given CCCCCCc1ccc(O)cc1O , state the outcome it received in this test.
Marked response: False

Exam item: Given CCOc1ccc2nc3cc(N)ccc3c(N)c2c1 , state the outcome it received in this test.
Marked response: True

Exam item: Given COc1ccc(CN2CCN(C(c3ccc(F)cc3)c3ccc(F)cc3)CC2)c(OC)c1OC , state the outcome it received in this test.
Marked response: True

Exam item: Given O=C1c2ccccc2C(=O)C1c1ccccc1 , state the outcome it received in this test.
Marked response: False

Exam item: Given NC(CS)C(=O)O (stereo not drawn) , state the outcome it received in this test.
Marked response: False

Exam item: Given N[C@H](Cc1c[nH]c2ccccc12)C(=O)O , state the outcome it received in this test.
Marked response: False

Exam item: Given CN1C2CCC1CC(OC(=O)c1c[nH]c3ccccc13)C2 (stereo not drawn) , state the outcome it received in this test.
Marked response: False

Exam item: Given CCCN1CCCC[C@H]1C(=O)Nc1c(C)cccc1C , state the outcome it received in this test.
Marked response: False

Exam item: Given O=c1ccc2ccccc2o1 , state the outcome it received in this test.
Marked response: False

Exam item: Given O=C(Nc1ccc(Cl)c(Cl)c1)C1CC1 , state the outcome it received in this test.
Marked response: False

Exam item: Given CCC(C(=O)OCCN(CC)CC)c1ccccc1 (stereo not drawn) , state the outcome it received in this test.
Marked response: False

Exam item: Given Oc1ccc(Cl)cc1Sc1cc(Cl)ccc1O , state the outcome it received in this test.
Marked response: False

Exam item: Given C=CCc1ccc(O)c(OC)c1 , state the outcome it received in this test.
Marked response: False

Exam item: Given CCCCCCCCCCOCC(O)CN (stereo not drawn) , state the outcome it received in this test.
Marked response: False
